Overview of recorded IC50 for various compounds
measuredTarget: UniProtKB Q9Y5Y9
assayMethodText: SyncroPatch384PE assay (automated patch clamp)
Type: cell-based
measurementConditions: resting state block (P1 measurement), human Nav1.8/b3 CHO cells, read-out: P1 IC50
Where a name gives a salt, the structure may show the parent alone.

compound | measuredTarget | IC50
CS(=N)(=O)c1cccc(NC(=O)c2cc(C(F)(F)F)nnc2N2CCCC(F)(F)CC2)c1 (centres unmarked) | UniProtKB Q9Y5Y9 | 5 to 50 nM
Cc1c(C(F)(F)F)nnc(N2CCCC(F)(F)CC2)c1C(=O)Nc1ccnc(S(C)(=N)=O)c1 (centres unmarked) | UniProtKB Q9Y5Y9 | 5 to 50 nM
C=CCCc1ccc(C(=O)Nc2cccc([S@](C)(=N)=O)c2)c(N2CCCC(F)(F)CC2)n1 | UniProtKB Q9Y5Y9 | ≤ 5 nM
CNCC(=O)N=[S@](C)(=O)c1cccc(NC(=O)c2c(N3CCCC(F)(F)CC3)ncc(-c3ccc(F)c(F)c3)c2C)c1 | UniProtKB Q9Y5Y9 | ≤ 5 nM
Cc1nc(N2CCCC(F)(F)CC2)c(C(=O)Nc2cccc([S@@](C)(=N)=O)c2)cc1C(F)(F)F | UniProtKB Q9Y5Y9 | ≤ 5 nM
Cc1c(-c2cnn(C)c2)cnc(N2CCCC(F)(F)CC2)c1C(=O)Nc1cccc(S(C)(=N)=O)c1 (centres unmarked) | UniProtKB Q9Y5Y9 | 50 to 100 nM
C[S@@](=N)(=O)c1cc(NC(=O)c2cc(Cl)c(C(F)(F)F)cc2N2CCO[C@H](C(F)(F)F)C2)ccn1 | UniProtKB Q9Y5Y9 | 5 to 50 nM
Cc1c(C(F)(F)F)nnc(N2CCCC(F)(F)CC2)c1C(=O)NC12CC(C(N)=O)(C1)C2 | UniProtKB Q9Y5Y9 | > 200 nM
Cc1c(-c2ccc(C#N)cc2)cnc(N2CCCC(F)(F)CC2)c1C(=O)Nc1cccc([S@@](C)(=O)=NC(=O)C(C)(C)N)c1 | UniProtKB Q9Y5Y9 | ≤ 5 nM
Cc1c(C(F)(F)F)nnc(N2CCCC(F)(F)CC2)c1C(=O)Nc1cccc([S@@](C)(=O)=NC(=O)[C@@H](C)N)c1 | UniProtKB Q9Y5Y9 | ≤ 5 nM
Cc1c(-c2c(F)cccc2F)cnc(N2CCCC(F)(F)CC2)c1C(=O)Nc1cccc(S(C)(=N)=O)c1 (centres unmarked) | UniProtKB Q9Y5Y9 | 5 to 50 nM
Cc1c(C#N)c(C(F)(F)F)nc(N2CCCC(F)(F)CC2)c1C(=O)Nc1cccc([S@@](C)(=O)=NC(=O)CCN)c1 [Example 58, formate] | UniProtKB Q9Y5Y9 | ≤ 5 nM
Cc1c(-c2cnn(C)c2)cnc(N2CCCC(F)(F)CC2)c1C(=O)Nc1cccc([S@@](C)(=O)=NC(=O)C2COC2)c1 | UniProtKB Q9Y5Y9 | 5 to 50 nM
Cc1c(-c2ccc(F)c(F)c2)cnc(N2CCCC(F)(F)CC2)c1C(=O)Nc1cccc([S@](C)(=N)=O)c1 | UniProtKB Q9Y5Y9 | ≤ 5 nM

====

measuredTarget: human Nav1.8 (Homo sapiens)
assayMethodText: SyncroPatch384PE assay (automated patch clamp)
Assay type: cell-based
measurementConditions: inactivated state block (P2 measurement), human Nav1.8/b3 CHO cells, read-out: P2 IC50
pIC50: −log10 of the molar value. Where a name gives a salt, the structure may show the parent alone.
measureName: pIC50

molecule | measureName | result
O=C(Nc1cc[nH]c(=O)c1)c1nnc(C(F)(F)F)cc1N1CCCC(F)(F)CC1 | pIC50 | < 6.70
CS(=N)(=O)c1cccc(NC(=O)c2cc(C(F)(F)F)nnc2N2CCC3(CC2)CC3)c1 (centres unmarked) | pIC50 | < 6.70
Cc1c(-c2ccc(C#N)cc2)cnc(N2CCCC(F)(F)CC2)c1C(=O)Nc1cccc(S(C)(=N)=O)c1 (centres unmarked) | pIC50 | ≥ 8.30
Cc1c(-c2ccc(C(F)F)cc2)nnc(N2CCCC(F)(F)CC2)c1C(=O)Nc1cccc([S@](C)(=N)=O)c1 | pIC50 | 7.30 to 8.30
Cc1c(Br)cnc(N2CCCC(F)(F)CC2)c1C(=O)Nc1cccc(S(C)(=N)=O)c1 (centres unmarked) | pIC50 | ≥ 8.30
Cc1c(-c2cnn(C)c2)cnc(N2CCCC(F)(F)CC2)c1C(=O)Nc1cccc([S@@](C)(=O)=NC(=O)[C@H](C)N)c1 [Example 76, formate] | pIC50 | ≥ 8.30
CNCC(=O)N=[S@](C)(=O)c1cccc(NC(=O)c2c(N3CCCC(F)(F)CC3)ncc(-c3ccc(C#N)cc3)c2C)c1 | pIC50 | ≥ 8.30
Cc1cc(C#N)nc(N2CCCC(F)(F)CC2)c1C(=O)Nc1cccc([S@](C)(=N)=O)c1 | pIC50 | 7.30 to 8.30
Cc1c(-c2cnn(C)c2)cnc(N2CCCC(F)(F)CC2)c1C(=O)NC12CC(C(=O)O)(C1)C2 | pIC50 | ≥ 8.30
C[S@@](=N)(=O)c1cccc(NC(=O)c2cc(Cl)c(C(F)(F)F)cc2N2CCCC(F)(F)CC2)c1 | pIC50 | ≥ 8.30
Cc1cc(C(N)=O)nc(N2CCCC(F)(F)CC2)c1C(=O)Nc1cccc([S@](C)(=N)=O)c1 | pIC50 | < 6.70
Cc1c(C#N)c(C#N)nc(N2CCCC(F)(F)CC2)c1C(=O)Nc1cccc([S@](C)(=N)=O)c1 | pIC50 | 7.30 to 8.30
Cc1c(-c2ccccc2)nnc(N2CCCC(F)(F)CC2)c1C(=O)Nc1cccc([S@@](C)(=N)=O)c1 | pIC50 | 7.00 to 7.30
Cc1c(-c2cnn(C)c2)cnc(N2CCCC(F)(F)CC2)c1C(=O)Nc1cccc([S@@](C)(=O)=NCCN)c1 [Example 210, 2,2,2-trifluoroacetate] | pIC50 | 7.30 to 8.30

====

measuredTarget: human Nav1.8 (Homo sapiens)
assayMethodText: SyncroPatch384PE assay (automated patch clamp)
Assay type: cell-based
measurementConditions: inactivated state block (P2 measurement), human Nav1.8/b3 CHO cells, read-out: P2 IC50
pIC50: −log10 of the molar value.

compound | pIC50
CNCC(=O)N=[S@](C)(=O)c1cccc(NC(=O)c2cc(Cl)c(C(F)(F)F)cc2N2CCCC(F)(F)CC2)c1 [Example 228] | ≥ 8.30
Cc1nc(N2CCCC(F)(F)CC2)c(C(=O)Nc2cccc([S@@](C)(=N)=O)c2)c(C)c1C(F)(F)F (single isomer, unassigned) [Example 185] | ≥ 8.30
Cc1nc(C(F)(F)F)nc(N2CCCC(F)(F)CC2)c1C(=O)Nc1cccc([S@@](C)(=N)=O)c1 [Example 143] | 7.00 to 7.30

====

Overview of recorded IC50 for various compounds
measuredTarget: human Nav1.8 (Homo sapiens)
assayMethodText: SyncroPatch384PE assay (automated patch clamp)
Type: cell-based
measurementConditions: inactivated state block (P2 measurement), human Nav1.8/b3 CHO cells, read-out: P2 IC50

compound | measuredTarget | IC50
Cc1c(-c2cnn(C)c2)cnc(N2CCCC(F)(F)CC2)c1C(=O)Nc1cccc([S@](C)(=N)=O)c1 [Example 45] | human Nav1.8 (Homo sapiens) | 50 to 100 nM
Cc1c(C#N)c(C(F)(F)F)nc(N2CCCC(F)(F)CC2)c1C(=O)Nc1cccc([S@@](C)(=O)=NC(=O)C2(N)CC2)c1 [Example 66] | human Nav1.8 (Homo sapiens) | ≤ 5 nM
Cc1nc(N2CCC3(CC2)CC3)c(C(=O)Nc2cccc(S(C)(=N)=O)c2)cc1Cl (stereo not shown) [Example 12] | human Nav1.8 (Homo sapiens) | ≤ 5 nM
Cc1ccsc1-c1cnc(N2CCCC(F)(F)CC2)c(C(=O)Nc2cccc(S(C)(=N)=O)c2)c1C (stereo not shown) [Example 113] | human Nav1.8 (Homo sapiens) | ≤ 5 nM

====

measuredTarget: human Nav1.8 (Homo sapiens, UniProt Q9Y5Y9)
Sequence (Q9Y5Y9 whole entry): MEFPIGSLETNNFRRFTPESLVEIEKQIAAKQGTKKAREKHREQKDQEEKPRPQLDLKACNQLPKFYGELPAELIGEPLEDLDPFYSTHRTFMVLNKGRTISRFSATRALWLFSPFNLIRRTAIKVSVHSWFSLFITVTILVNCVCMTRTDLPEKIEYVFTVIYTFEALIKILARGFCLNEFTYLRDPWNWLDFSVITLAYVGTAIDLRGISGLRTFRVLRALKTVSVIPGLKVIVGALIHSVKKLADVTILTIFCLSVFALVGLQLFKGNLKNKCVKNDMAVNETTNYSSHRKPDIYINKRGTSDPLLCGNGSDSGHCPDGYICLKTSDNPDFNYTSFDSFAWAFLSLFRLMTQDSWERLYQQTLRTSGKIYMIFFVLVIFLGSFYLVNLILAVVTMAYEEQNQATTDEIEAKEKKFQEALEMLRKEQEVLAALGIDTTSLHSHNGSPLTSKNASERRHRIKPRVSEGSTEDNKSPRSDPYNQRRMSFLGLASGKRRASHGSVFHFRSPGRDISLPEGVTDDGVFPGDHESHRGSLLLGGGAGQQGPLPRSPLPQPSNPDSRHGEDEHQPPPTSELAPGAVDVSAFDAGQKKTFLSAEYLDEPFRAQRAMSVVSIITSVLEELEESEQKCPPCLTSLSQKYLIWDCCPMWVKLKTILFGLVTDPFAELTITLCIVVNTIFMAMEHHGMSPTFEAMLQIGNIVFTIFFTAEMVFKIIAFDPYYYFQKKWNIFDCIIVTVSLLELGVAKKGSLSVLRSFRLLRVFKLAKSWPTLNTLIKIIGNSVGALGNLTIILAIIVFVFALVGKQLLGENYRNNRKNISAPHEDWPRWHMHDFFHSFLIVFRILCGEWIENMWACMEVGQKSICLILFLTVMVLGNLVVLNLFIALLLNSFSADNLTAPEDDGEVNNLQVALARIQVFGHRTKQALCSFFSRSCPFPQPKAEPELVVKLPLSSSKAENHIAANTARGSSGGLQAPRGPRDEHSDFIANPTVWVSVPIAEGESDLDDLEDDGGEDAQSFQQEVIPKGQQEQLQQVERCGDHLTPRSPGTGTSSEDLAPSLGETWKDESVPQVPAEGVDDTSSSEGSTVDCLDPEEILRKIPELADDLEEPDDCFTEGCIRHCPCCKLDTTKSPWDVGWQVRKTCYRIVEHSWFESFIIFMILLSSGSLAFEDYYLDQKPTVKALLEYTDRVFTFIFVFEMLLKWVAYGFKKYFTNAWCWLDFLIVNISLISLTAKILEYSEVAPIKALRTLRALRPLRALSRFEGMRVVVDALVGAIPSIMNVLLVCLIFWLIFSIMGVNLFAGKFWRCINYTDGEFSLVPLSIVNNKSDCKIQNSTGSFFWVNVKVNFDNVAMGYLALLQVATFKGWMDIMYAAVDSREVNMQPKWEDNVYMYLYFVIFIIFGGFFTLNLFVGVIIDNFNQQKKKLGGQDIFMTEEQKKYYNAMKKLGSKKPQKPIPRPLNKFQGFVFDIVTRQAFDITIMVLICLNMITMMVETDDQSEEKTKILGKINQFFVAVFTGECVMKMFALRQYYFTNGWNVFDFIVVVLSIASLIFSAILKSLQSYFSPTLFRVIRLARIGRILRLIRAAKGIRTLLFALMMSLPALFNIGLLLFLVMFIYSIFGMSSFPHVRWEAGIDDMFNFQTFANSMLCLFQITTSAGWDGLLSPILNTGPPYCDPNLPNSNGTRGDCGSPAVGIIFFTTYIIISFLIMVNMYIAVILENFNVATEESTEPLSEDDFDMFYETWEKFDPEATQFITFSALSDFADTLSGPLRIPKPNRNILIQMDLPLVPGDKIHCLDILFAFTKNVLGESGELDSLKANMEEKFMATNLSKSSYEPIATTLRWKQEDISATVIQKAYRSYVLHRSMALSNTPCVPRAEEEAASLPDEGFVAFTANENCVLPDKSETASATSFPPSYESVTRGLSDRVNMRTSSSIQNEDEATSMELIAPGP
assayMethodText: SyncroPatch384PE assay (automated patch clamp)
Format: cell-based
measurementConditions: inactivated state block (P2 measurement), human Nav1.8/b3 CHO cells, read-out: P2 IC50
pIC50: −log10 of the molar value.
Overview of recorded pIC50 for various molecules
measureName: pIC50

molecule | result
Cc1c(C(F)(F)F)nnc(N2CCCC(F)(F)CC2)c1C(=O)Nc1cccc(S(C)(=N)=N)c1 | 7.00 to 7.30
Cc1c(C(F)(F)F)nnc(N2CCCCCC2)c1C(=O)Nc1cccc([S@](C)(=N)=O)c1 | 7.00 to 7.30
COc1ccc(-c2nnc(N3CCCC(F)(F)CC3)c(C(=O)Nc3cccc([S@@](C)(=N)=O)c3)c2C)cc1 (single isomer, unassigned) | < 6.70
Cc1c(-c2ccc(C#N)cc2)cnc(N2CCCC(F)(F)CC2)c1C(=O)Nc1cccc([S@](C)(=N)=O)c1 | ≥ 8.30
Cc1c(-c2cnn(C)c2)cnc(N2CCCC(F)(F)CC2)c1C(=O)Nc1cccc([S@@](C)(=O)=NC(=O)CN)c1 | 7.30 to 8.30
Cc1c(-c2ccc(C(F)F)cc2)cnc(N2CCCC(F)(F)CC2)c1C(=O)Nc1cccc(S(C)(=N)=O)c1 (stereo not shown) | ≥ 8.30
Cc1c(C(F)(F)F)cnc(N2CCCC(F)(F)CC2)c1C(=O)Nc1cccc([S@@](C)(=O)=NC(=O)CO)c1 | ≥ 8.30
